// cross-study collection: pIC50 for Autotaxin (Homo sapiens, UniProt Q13822)
pIC50: −log10 of the molar value.

Compound	pIC50
C[C@H]1CN(Cc2ccc(O)cc2)C(=O)c2cc(-c3ccc(Cl)cc3)nn21	≤ 6.00
CC(C)[C@@H](NC(=O)c1cc(C(F)(F)F)ccc1F)C(=O)N1CCC2(CC1)C(=O)N(C)C(=O)N2Cc1ccccc1	> 6.30

The value of pIC50 recorded for CCc1nc2sc(N3CCC(N(C)C(=O)NC(C)(C)C)C3)nn2c1N(C)c1nc(-c2ccc(F)cc2)c(C#N)s1 (stereo not shown) when tested on Autotaxin (Homo sapiens, UniProt Q13822) reads 6.30 to 7.00

The value of pIC50 recorded for CCCCC1CN(CC(=O)NCc2cc(=O)[nH]o2)C(=O)c2cc(-c3ccc(Cl)cc3)nn21 (stereo not shown) when tested on Autotaxin (Homo sapiens, UniProt Q13822) reads 7.00 to 8.00

The value of pIC50 recorded for O=C(OCc1cc(Cl)cc(Cl)c1)N1C[C@@H]2CN(C(=O)c3ccc4[nH]ncc4c3)C[C@@H]2C1 when tested on Autotaxin (Homo sapiens, UniProt Q13822) reads 5.99

The value of pIC50 recorded for NS(=O)(=O)c1ccc(C(=O)N2CC3(CCN(C(=O)OCc4ccc(OC(F)(F)F)cc4F)CC3)C2)cc1 when tested on Autotaxin (Homo sapiens, UniProt Q13822) reads 9.00

The value of pIC50 recorded for CCCCCC1CN(CC(=O)N2CCCCC2CCN2CCOCC2)C(=O)c2cc(-c3ccc(Cl)cc3)nn21 (stereo not shown) when tested on Autotaxin (Homo sapiens, UniProt Q13822) reads ≤ 6.00

----------
// cross-study collection: pIC50 for Autotaxin (Homo sapiens)
Hey, just a heads up that pIC50 is the negative log base 10 of the concentration in molar.

Observe how each entry below is paired with its result.
Test Smiles	pIC50
CCOc1cc(C(=O)N2C[C@@H]3[C@H]4CN(C(=O)c5ccc(S(N)(=O)=O)nc5)C[C@H]4[C@@H]3C2)nc2ccccc12	6.81
O=C(CCc1cc(Cl)cc(Cl)c1)N1C[C@H]2CN(Cc3ccc4[nH]c(=O)oc4c3)C[C@H]2C1	6.55
Cn1c(COc2ccc(S(C)(=O)=O)cc2C(C)(C)C)n[nH]c1=O	6.64
O=C(C#Cc1ccc(Cl)cc1)N1CCC2(CC1)CN(C(=O)c1ccc3[nH]nnc3c1)C2	6.89
Cc1cc(OCc2n[nH]c(=O)n2C)c(C2CCCCC2)cc1Cl	8.10

// moving on: another record for pIC50
Given item O=C(NCc1c[nH]nn1)N1CC2(CCN(C(=O)OCc3ccc(OC(F)(F)F)cc3)CC2)C1 , the value recorded as its pIC50 is 7.64

----------
// cross-study collection: IC50 for Autotaxin (Homo sapiens, UniProt Q13822)

Molecule	Test Value
C[C@H]1CN(Cc2ccc(C#N)cc2)C(=O)c2cc(-c3c(Br)cc(Cl)cc3CO)nn21	100 to 1000 nM
COc1ccc(F)c(CN2C(=O)N(C)C(=O)C23CCN(C(=O)[C@H](NC(=O)c2cc(C(F)(F)F)ccc2F)C(C)C)CC3)c1	< 500 nM
CCCCCC1CN(CC(=O)N(C)CCN(C)C)C(=O)c2cc(-c3ccc(Cl)cc3)nn21 (stereo not shown)	≥ 1000 nM
CCCCC1CN(CC(=O)N(C)CC(O)c2ccccc2)C(=O)c2cc(-c3ccc(Cl)cc3)nn21 (stereo not shown)	100 to 1000 nM
CC1CCN1C(=O)c1cnc(NCc2cc(Cl)cc(Cl)c2)nc1 (stereo not shown)	100 to 1000 nM
CC(=O)NC1=C(c2cc3n(n2)[C@@H](C)CN(Cc2ccc(C#N)cc2)C3=O)C(O)CC(C(F)(F)F)C1 (stereo partly shown)	100 to 1000 nM

The value of IC50 recorded for COc1ccc(CCC(=O)N2CC[C@@H]3CN(C(=O)c4ccc5[nH]nnc5c4)C[C@@H]3CC2)c(C(F)(F)F)c1 when tested on Autotaxin (Homo sapiens, UniProt Q13822) reads 14 nM
